Examples of compounds with documented Ki follow.
Molecular target: Rho kinase 1 (ROCK-I) (Homo sapiens)
Sequence (Q13464 whole entry): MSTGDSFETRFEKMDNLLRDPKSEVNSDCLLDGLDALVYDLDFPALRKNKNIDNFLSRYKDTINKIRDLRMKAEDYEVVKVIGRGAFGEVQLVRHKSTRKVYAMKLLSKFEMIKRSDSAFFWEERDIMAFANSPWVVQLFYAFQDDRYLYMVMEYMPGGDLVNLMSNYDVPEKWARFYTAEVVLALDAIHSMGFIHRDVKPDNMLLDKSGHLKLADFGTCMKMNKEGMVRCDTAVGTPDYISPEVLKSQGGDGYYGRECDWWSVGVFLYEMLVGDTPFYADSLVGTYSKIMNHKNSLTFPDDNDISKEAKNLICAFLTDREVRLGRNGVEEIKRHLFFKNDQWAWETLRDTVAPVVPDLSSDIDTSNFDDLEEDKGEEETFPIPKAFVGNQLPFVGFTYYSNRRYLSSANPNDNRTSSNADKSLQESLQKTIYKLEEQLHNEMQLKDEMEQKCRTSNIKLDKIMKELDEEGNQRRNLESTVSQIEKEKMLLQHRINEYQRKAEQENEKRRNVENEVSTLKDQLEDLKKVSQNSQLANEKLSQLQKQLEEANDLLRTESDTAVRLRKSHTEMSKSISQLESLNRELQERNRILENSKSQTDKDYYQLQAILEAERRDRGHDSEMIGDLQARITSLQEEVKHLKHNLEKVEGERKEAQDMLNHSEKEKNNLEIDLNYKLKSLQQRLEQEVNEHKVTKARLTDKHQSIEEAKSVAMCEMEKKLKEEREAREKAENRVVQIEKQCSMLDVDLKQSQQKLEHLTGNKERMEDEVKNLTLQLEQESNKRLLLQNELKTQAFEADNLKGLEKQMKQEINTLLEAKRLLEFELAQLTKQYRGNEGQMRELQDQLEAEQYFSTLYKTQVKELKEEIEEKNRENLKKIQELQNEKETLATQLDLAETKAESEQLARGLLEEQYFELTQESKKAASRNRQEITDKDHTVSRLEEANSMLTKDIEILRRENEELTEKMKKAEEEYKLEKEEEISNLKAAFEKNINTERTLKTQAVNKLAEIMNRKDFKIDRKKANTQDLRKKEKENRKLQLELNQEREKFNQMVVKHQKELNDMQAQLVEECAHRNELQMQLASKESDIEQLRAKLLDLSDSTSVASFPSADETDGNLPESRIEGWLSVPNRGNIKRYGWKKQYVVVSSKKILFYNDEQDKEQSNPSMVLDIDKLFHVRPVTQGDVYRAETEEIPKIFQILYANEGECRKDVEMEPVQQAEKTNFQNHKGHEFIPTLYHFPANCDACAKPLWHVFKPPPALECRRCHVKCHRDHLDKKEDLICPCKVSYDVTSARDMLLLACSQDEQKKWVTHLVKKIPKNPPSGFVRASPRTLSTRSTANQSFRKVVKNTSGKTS

Q: For Rho kinase 1 (ROCK-I) (Homo sapiens), give the measured Ki of the entry Cc1c[nH]c2nccc(Oc3ccc(C[C@H](N)C(=O)NC4(CO)CCN(C)CC4)cc3F)c12
Ans: < 3 nM

Q: For Rho kinase 1 (ROCK-I) (Homo sapiens), give the measured Ki of the entry CN(C)C(=O)C(Cc1ccc(Oc2ccnc3[nH]ccc23)cc1)NC(=O)C1CCNC1 (stereo not drawn)
Ans: > 30 nM

Q: For Rho kinase 1 (ROCK-I) (Homo sapiens), give the measured Ki of the entry N[C@@H](Cc1ccc(Oc2ccnc3[nH]ccc23)cc1)C(=O)NC1CCOCC1
Ans: 3 to 30 nM

Q: For Rho kinase 1 (ROCK-I) (Homo sapiens), give the measured Ki of the entry Cc1c[nH]c2nccc(Oc3ccc(C[C@H](N)C(=O)N4CCc5ncncc5C4)cc3F)c12
Ans: < 3 nM

Q: For Rho kinase 1 (ROCK-I) (Homo sapiens), give the measured Ki of the entry N[C@@H](Cc1ccc(Oc2ccnc3[nH]cc(C4=CCNC4)c23)cc1)C(=O)N1CCN(Cc2ccccc2)CC1
Ans: 3 to 30 nM

Q: For Rho kinase 1 (ROCK-I) (Homo sapiens), give the measured Ki of the entry Cc1c[nH]c2nccc(Oc3ccc(C[C@H](N)C(=O)N4CCN(C(=O)C5CCN(C)CC5)CC4)cc3F)c12
Ans: 3 to 30 nM

Q: For Rho kinase 1 (ROCK-I) (Homo sapiens), give the measured Ki of the entry Cc1c[nH]c2nccc(Oc3ccc(C[C@H](N)C(=O)N4CCN(S(=O)(=O)c5ccccc5)CC4)cc3F)c12
Ans: < 3 nM

Q: For Rho kinase 1 (ROCK-I) (Homo sapiens), give the measured Ki of the entry N[C@@H](Cc1ccc(Oc2ccnc3[nH]cc(-c4ccc(O)cc4)c23)cc1)C(=O)NCCc1ccncc1
Ans: < 3 nM

Q: For Rho kinase 1 (ROCK-I) (Homo sapiens), give the measured Ki of the entry Cc1c[nH]c2ncnc(Oc3ccc(C[C@H](N)C(=O)N4CCN(C)CC4)cc3F)c12
Ans: 3 to 30 nM

Q: For Rho kinase 1 (ROCK-I) (Homo sapiens), give the measured Ki of the entry Cc1c[nH]c2ncnc(Oc3ccc(C[C@H](N)C(=O)N4CCN(C5CC5)CC4)cc3F)c12
Ans: < 3 nM

Source: patent US10501461B2
